Reference source for all entries: patent US20240293391A1

Record form. Attribute: CC50 at 5 days. Fill in for each entry.
run.description: Cytotoxicity for mock-infected (uninfected) MT-4 cells
Format: cell-based
particulars: human, mock-infected (uninfected) MT-4 cells, Concentration required to reduce the viability of mock-infected MT4 cells by 50%

Q: Give the reported value of CC50 at 5 days for this record: c1cc(CN2CCCNCCNCCCNCC2)ccc1CN1CCCNCCNCCCNCC1 [Plerixafor, reference compound]
Ans: 6.29 µM

Q: Give the reported value of CC50 at 5 days for this record: COc1cc2ccnc(CN(CCCCN)C3CCCc4cccnc43)c2cc1OC (stereo not drawn) [Compound 19a]
Ans: > 100 µM

Q: Give the reported value of CC50 at 5 days for this record: COc1cc2ccnc(CN(CCCCN)Cc3ncccc3C)c2cc1OC [Compound 24a]
Ans: > 100 µM

---

Record form. Attribute: pIC50. Fill in for each entry.
target.system: CXCR4 (Homo sapiens, UniProt P61073)
Sequence (P61073 whole entry): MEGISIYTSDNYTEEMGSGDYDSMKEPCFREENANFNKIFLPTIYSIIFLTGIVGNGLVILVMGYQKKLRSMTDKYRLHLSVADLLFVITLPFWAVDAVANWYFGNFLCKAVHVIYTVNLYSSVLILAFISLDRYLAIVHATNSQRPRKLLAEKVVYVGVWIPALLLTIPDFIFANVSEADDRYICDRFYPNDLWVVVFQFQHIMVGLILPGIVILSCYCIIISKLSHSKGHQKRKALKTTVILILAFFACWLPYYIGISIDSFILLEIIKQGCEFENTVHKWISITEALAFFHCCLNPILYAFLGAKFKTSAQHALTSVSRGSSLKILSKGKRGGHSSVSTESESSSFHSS
run.description: CXCR4 calcium mobilization assay (CXCL12-induced, U87.CD4.CXCR4 cells, FLIPR)
Format: cell-based
particulars: Concentration needed to inhibit CXCL12-induced calcium signaling by 50%
In plain terms, pIC50 is the concentration in mol/L turned into minus its base-10 logarithm.

Q: Write pIC50 of NCCCCN(Cc1nccc2ccccc12)c1cccc2cccnc12 [Compound 31c] ; system used: CXCR4 (Homo sapiens, UniProt P61073)
Ans: 8.30

Q: Write pIC50 of NCCCCN(Cc1ccccn1)c1cccc2cccnc12 [Compound 31b] ; system used: CXCR4 (Homo sapiens, UniProt P61073)
Ans: 5.26

---

target.system: CXCR4 (Homo sapiens)
run.description: CXCR4 binding assay (competition with CXCL12^AF647 on Jurkat cells, flow cytometry)
Parameters: endogenous in cells; host or cells: Jurkat cells
particulars: Concentration needed to inhibit CXCL12 receptor binding by 50%; Jurkat cells; mean of at least two independent experiments; read-out: CXCR4 Binding IC50
Record form. Attribute: IC50. Fill in for each entry.
Provide only the numeric value, understood in nM.

Q: Give the reported value of IC50 for this record: COc1ccc2c(CN(CCCCN)C3CCCc4cccnc43)nccc2c1 (stereo not shown) [Compound 19b]
Ans: 0.25

Q: Give the reported value of IC50 for this record: NCCCCN(Cc1ccccn1)c1cccc2cccnc12 [Compound 31b]
Ans: 36

Q: Give the reported value of IC50 for this record: NCCCCN(Cc1nccc2ccccc12)c1cccc2cccnc12 [Compound 31c]
Ans: 2.3
